Consider the following binders; for each one, report its Kd.
- target: CXCL6 (human)
- measurement_protocol: BLI
Enter your answer as a number in nM; do not include the unit.

Returns the measured Kd for the input binder. Input: P1090_IXORI (natural protein) GSKELSGPESSENSIEAAFCDTNCTEGTDGVWSGCSAGCFCVHVGNSTVGRCMTFNGVD
2.82

Returns the measured Kd for the input binder. Input: P1126 (natural protein, also: glycosylated) DGGKPQILQRTDKSTDSEWDPQTCPETCIPSKNITCSDGCVCVKLGEEEEGTCFNMTGVDWLGSPSDD
9.12

Returns the measured Kd for the input binder. Input: P1142 (natural protein, glycosylated (periodic acid–Schiff staining)) DGGKPQILQRTDHSTDSDWDPQMCPETCNPSKNISCSSECLCVTLGGGDETGTCFNMSGVDWLGHAQASDGHNDGGGASAWSHPQFEKLEHHHHHHHH
6.27

Returns the measured Kd for the input binder. Input: P1080_IXORI (natural protein) SAGSKGSSAPQSSGDSVVAEFCDTNCTMKKDGKWTECNGDCFCVHVGNETVGRCMRLDGDYDYTSSKTTRRNKKTRNGLCRLDRNRTTVDYPERNTREP
61

Returns the measured Kd for the input binder. Input: P1104 (natural protein, also: glycosylated) ESKEASASQGPGKSFKVEFCETNCTENNGVWSGCTGDCICVSVGDSKEGRCMDLGDKVIDTPVAQG
34.3
